Experiment: molar heat capacity at constant pressure
Settings: 303.15 K; 101.33 kPa; Liquid; Small sample (50 mg) DSC
assayMetric: molar heat capacity at constant pressure (J/K/mol)
Give the number; J/K/mol is assumed, so skip it.

| molecule | unitSymbol | molar heat capacity at constant pressure |
| --- | --- | --- |
| Clc1cccc(Cl)c1 | J/K/mol | 171.25 |
| Clc1ccccc1Br | J/K/mol | 175.96 |

Please look at the following compound next.
Entry Clc1ccccc1Cl , molar heat capacity at constant pressure reported as 171.76

====

Assay: molar heat capacity at constant pressure
Conditions: 307.15 K; 101.33 kPa; Liquid; Small sample (50 mg) DSC
± gives the expanded uncertainty stated by the source.
assayMetric: molar heat capacity at constant pressure
Number first, unit second: that is the form wanted.

Example entries and their recorded answers appear below.
| molecule | assayMetric | result |
| --- | --- | --- |
| Brc1ccccc1 | molar heat capacity at constant pressure | 156.49 ± 2.4 J/K/mol |
| Clc1cccc(Cl)c1 | molar heat capacity at constant pressure | 172.14 ± 2.7 J/K/mol |
| Brc1cccc(Br)c1 | molar heat capacity at constant pressure | 180.37 ± 2.8 J/K/mol |
| Clc1cccc(Br)c1 | molar heat capacity at constant pressure | 175.82 ± 2.7 J/K/mol |
| Brc1ccccc1Br | molar heat capacity at constant pressure | 181.6 ± 2.8 J/K/mol |
| Clc1ccccc1 | molar heat capacity at constant pressure | 153.03 ± 2.4 J/K/mol |
| Clc1ccccc1Cl | molar heat capacity at constant pressure | 172.64 ± 2.7 J/K/mol |
| Clc1ccc(Cl)c(Cl)c1 | molar heat capacity at constant pressure | 196.63 ± 3 J/K/mol |

Entry Clc1ccccc1Br — recorded molar heat capacity at constant pressure = 176.77 ± 2.7 J/K/mol

====

Settings: 328.15 K; 101.33 kPa; Liquid; Vibrating tube method
Property: mass density; scope: individual molecules
# value in kg/m3; strip the unit string

| molecule | mass density / kg/m3 |
| --- | --- |
| Clc1ccccc1Br | 1606.36 |
| Clc1ccccc1Cl | 1267.09 |
| Brc1ccccc1 | 1447.8 |
| Clc1cccc(Cl)c1 | 1248.82 |
| Clc1cccc(Br)c1 | 1584.56 |
| Brc1cccc(Br)c1 | 1903.13 |
| Brc1ccccc1Br | 1927.42 |
| Clc1ccccc1 | 1068.57 |

Recorded result, Clc1ccc(Cl)c(Cl)c1 , mass density: 1412.89

====

Assay: molar heat capacity at constant pressure
Settings: 337.15 K; 101.33 kPa; Liquid; Small sample (50 mg) DSC
Measured molar heat capacity at constant pressure of individual entries
# output: bare number, implied unit J/K/mol

Example molecules with recorded molar heat capacity at constant pressure:
| molecule | molar heat capacity at constant pressure, J/K/mol |
| --- | --- |
| Clc1cccc(Br)c1 | 182.47 |
| Brc1ccccc1Br | 187.63 |
| Clc1cccc(Cl)c1 | 179.22 |

The molecule listed as Clc1ccc(Cl)c(Cl)c1 has a reported molar heat capacity at constant pressure of 202.32

// molar heat capacity at constant pressure value for Brc1cccc(Br)c1 : 186.67

According to the records, this molecule Clc1ccccc1 displays molar heat capacity at constant pressure of 160.35
